FYI, the data here is from patent US20230233569A1.

# system_tested: KRAS G12V (Homo sapiens, UniProt P01116+P62937, G12V)
# Sequence (P01116 1-169 isoform P01116-2 G12V limits assumed): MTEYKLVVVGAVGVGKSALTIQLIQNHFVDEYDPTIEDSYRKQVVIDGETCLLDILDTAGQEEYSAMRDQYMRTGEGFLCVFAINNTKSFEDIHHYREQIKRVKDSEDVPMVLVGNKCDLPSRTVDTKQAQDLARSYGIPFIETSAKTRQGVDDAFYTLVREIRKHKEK
# Sequence (P62937 whole entry): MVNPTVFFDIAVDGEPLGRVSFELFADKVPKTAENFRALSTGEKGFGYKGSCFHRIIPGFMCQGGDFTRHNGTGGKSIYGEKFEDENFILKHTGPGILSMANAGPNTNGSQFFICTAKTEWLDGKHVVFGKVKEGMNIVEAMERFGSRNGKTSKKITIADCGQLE
# test_summary: Disruption of BRAF RBD interaction with Ras (FRET / MOA assay, with Cyclophilin A)
# Assay type: biochemical
# measurement_parameters: KRAS G12V; read-out: KRAS G12V FRET data IC50
# Excerpt: This protocol may also be executed substituting other Ras proteins or nucleotides. The purpose of this biochemical assay was to measure the ability of test compounds to facilitate ternary complex formation between a nucleotide-loaded K-Ras isoform and Cyclophilin A; the resulting ternary complex disrupts binding to a BRAF^RBD construct, inhibiting K-Ras signaling through a RAF effector. Data is reported as IC50 values. […]
We begin with a simple list: items and their reported IC50.
readout_type: IC50

molecule	test_result
C=CC(=O)N1CC[C@H](C(=O)Nc2ccccc2C(=O)N[C@H]2Cc3cc(O)cc(c3)-c3ccc4c(c3)c(c(-c3cnccc3COC)n4CC)CC(C)(C)COC(=O)[C@@H]3CCCN(N3)C2=O)C1	100 to 1000 nM
CCn1c(-c2cnccc2COC)c2c3cc(ccc31)-c1cc(O)cc(c1)C[C@H](NC(=O)[C@H](C(C)C)N(C)C(=O)c1ncco1)C(=O)N1CCC[C@H](N1)C(=O)OCC(C)(C)C2	100 to 1000 nM
CC#CC(=O)N1CC[C@H](C(=O)N(C)[C@H](C(=O)N[C@H]2Cc3nc(cs3)-c3ccc4c(c3)c(c(-c3cccnc3[C@H](C)OC)n4CC)CC(C)(C)COC(=O)[C@@H]3CCCN(N3)C2=O)C(C)C)C1	1000 to 10000 nM
CCn1c(-c2cccnc2[C@H](C)OC)c2c3cc(ccc31)-c1csc(n1)C[C@H](NC(=O)[C@H](C(C)C)N(C)C(=O)N1CCN(C)CC1)C(=O)N1CCC[C@H](N1)C(=O)OCC(C)(C)C2	100 to 1000 nM
C=CC(=O)N1CC[C@H](C(=O)N(C)[C@H](C(=O)N[C@H]2Cc3cc(O)cc(c3)-c3ccc4c(c3)c(c(-c3cccnc3COC)n4CC)CC(C)(C)COC(=O)[C@@H]3CCCN(N3)C2=O)C2CCCC2)C1	100 to 1000 nM
CCn1c(-c2cccnc2[C@H](C)OC)c2c3cc(ccc31)-c1cc(O)cc(c1)C[C@H](NC(=O)[C@H](C(C)C)N(C)C(=O)[C@H]1CC1(F)F)C(=O)N1CCC[C@H](N1)C(=O)OCC(C)(C)C2	100 to 1000 nM
CCn1c(-c2cccnc2[C@H](C)OC)c2c3cc(ccc31)-c1csc(n1)C[C@H](NC(=O)[C@H]1CCCO1)C(=O)N1CCC[C@H](N1)C(=O)OCC(C)(C)C2 (atropisomer, axis not shown)	100 to 1000 nM
CCn1c(-c2cccnc2[C@H](C)OC)c2c3cc(ccc31)-c1csc(n1)C[C@H](NC(=O)[C@H](C(C)C)N(C)C(=O)N1CC(N3CCN(C)CC3)C1)C(=O)N1CCC[C@H](N1)C(=O)OCC(C)(C)C2	100 to 1000 nM
CCn1c(-c2cc(C3CCN(C)CC3)cnc2[C@H](C)OC)c2c3cc(ccc31)-c1csc(n1)C[C@H](NC(=O)[C@H](C(C)C)N(C)C(=O)N(C)C)C(=O)N1CCC[C@H](N1)C(=O)OCC(C)(C)C2 (atropisomer, axis not shown)	100 to 1000 nM
CCn1c(-c2cc(N3CCN(C)CC3)cnc2[C@H](C)OC)c2c3cc(ccc31)-c1cc(O)cc(c1)C[C@H](NC(=O)[C@H](C1CCCC1)N(C)C(=O)[C@H]1OCC[C@H]1c1ccccc1)C(=O)N1CCC[C@H](N1)C(=O)OCC(C)(C)C2	10 to 100 nM
CCn1c(-c2cccnc2COC)c2c3cc(ccc31)-c1cc(O)cc(c1)C[C@H](NC(=O)[C@H](C(C)C)N(C)C(=O)[C@H](N)CCCNC(=N)N)C(=O)N1CCC[C@H](N1)C(=O)OCC(C)(C)C2	1000 to 10000 nM
CCn1c(-c2cccnc2[C@H](C)OC)c2c3cc(ccc31)-c1csc(n1)C[C@H](NC(=O)[C@H](C(C)C)N(C)C(=O)N1CC(C#N)C1)C(=O)N1CCC[C@H](N1)C(=O)OCC(C)(C)C2 (atropisomer, axis not shown)	100 to 1000 nM
CCn1c(-c2cccnc2[C@H](C)OC)c2c3cc(ccc31)-c1cc(O)cc(c1)C[C@H](NC(=O)[C@H](C(C)C)N(C)C(=O)[C@H]1CCC[C@H]1N)C(=O)N1CCC[C@H](N1)C(=O)OCC(C)(C)C2 (atropisomer, axis not shown)	100 to 1000 nM
CCn1c(-c2cncnc2)c2c3cc(ccc31)-c1cc(O)cc(c1)C[C@H](NC(=O)[C@H](C(C)C)N(C)C(=O)[C@H]1CCN(C(=O)C#CCN(C)C)C1)C(=O)N1CCC[C@H](N1)C(=O)OCC(C)(C)C2	1000 to 10000 nM
C=CC(=O)N1CC[C@H](C(=O)N(C)[C@H](C(=O)N[C@H]2Cc3cc(OC(=O)CN)cc(c3)-c3ccc4c(c3)c(c(-c3ccccc3CCOC)n4CC)CC(C)(C)COC(=O)[C@@H]3CCCN(N3)C2=O)C(C)C)C1	1000 to 10000 nM
C=CC(=O)N1CC[C@H](C(=O)N(C)[C@H](C(=O)N[C@H]2Cc3cc(O)cc(c3)-c3ccc4c(c3)c(c(-c3ccccc3CCOC)n4C(C)(C)C#N)CC(C)(C)COC(=O)[C@@H]3CCCN(N3)C2=O)C(C)C)C1	100 to 1000 nM
CCn1c(-c2cnccc2COC)c2c3cc(ccc31)-c1cc(O)cc(c1)C[C@H](NC(=O)[C@H](C(C)C)N(C)C(=O)[C@H]1CCN(C(=O)C3COC3)C1)C(=O)N1CCC[C@H](N1)C(=O)OCC(C)(C)C2	100 to 1000 nM

* * *

# system_tested: KRAS G12C (Homo sapiens, UniProt P01116+P62937, G12C)
# Sequence (P01116 1-169 isoform P01116-2 G12C, one chain of several): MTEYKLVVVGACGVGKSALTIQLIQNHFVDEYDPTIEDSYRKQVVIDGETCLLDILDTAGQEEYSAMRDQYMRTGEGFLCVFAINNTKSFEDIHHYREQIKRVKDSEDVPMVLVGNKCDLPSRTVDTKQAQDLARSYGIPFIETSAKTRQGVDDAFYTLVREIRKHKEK
# test_summary: Disruption of BRAF RBD interaction with Ras (FRET / MOA assay, with Cyclophilin A)
# Format: biochemical
# measurement_parameters: read-out: KRAS G12C FRET data, IC50
pIC50: −log10 of the molar value.
readout_type: pIC50

molecule	test_result
CCn1c(-c2cccnc2[C@H](C)OC)c2c3cc(ccc31)-c1csc(n1)C[C@H](NC(=O)C1(F)COC1)C(=O)N1CCC[C@H](N1)C(=O)OCC(C)(C)C2	6.00 to 7.00
CCn1c(-c2cccnc2[C@H](C)OC)c2c3cc(ccc31)-c1csc(n1)C[C@H](NC(=O)[C@H](C(C)C)N(C)C(=O)N1CC(OC(F)F)C1)C(=O)N1CCC[C@H](N1)C(=O)OCC(C)(C)C2 (atropisomer, axis not shown)	7.00 to 8.00
CCn1c(-c2cccnc2[C@H](C)OC)c2c3cc(ccc31)-c1cc(O)cc(c1)C[C@H](NS(=O)(=O)CCN(C)C)C(=O)N1CCC[C@H](N1)C(=O)OCC(C)(C)C2 (racemic)	< 5.00
CCn1c(-c2cccnc2[C@H](C)OC)c2c3cc(ccc31)-c1csc(n1)C[C@H](NC(=O)[C@H](C(C)C)N(C)C(=O)N1CC[C@H]3CN(C)C[C@H]31)C(=O)N1CCC[C@H](N1)C(=O)OCC(C)(C)C2 (atropisomer, axis not shown)	7.00 to 8.00

* * *

We begin with a simple list: items and their reported pIC50.
# system_tested: KRAS G12D (Homo sapiens, UniProt P01116+P62937, G12D)
# Sequence (P01116 1-169 isoform P01116-2 G12D limits assumed, one chain of several): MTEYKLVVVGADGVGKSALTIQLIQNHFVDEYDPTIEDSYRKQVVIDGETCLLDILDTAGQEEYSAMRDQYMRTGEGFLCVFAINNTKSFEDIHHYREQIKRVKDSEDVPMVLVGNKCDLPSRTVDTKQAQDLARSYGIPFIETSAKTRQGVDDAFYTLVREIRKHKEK
# test_summary: Ras-Raf disruption / FRET / MOA assay (BRAF RBD)
# Type: biochemical
# measurement_parameters: Ras-Raf disruption, with Cyclophilin A; read-out: KRAS G12D FRET data IC50
# Excerpt: Disruption of […] Ras-binding Domain (BRAF^RBD) Interaction with K-Ras by Compounds of the Invention (also Called a FRET Assay or an MOA Assay) Note—The following protocol describes a procedure for monitoring disruption of K-Ras G12C (GMP-PNP) binding to BRAF^RBD by a compound of the invention. This protocol may also be executed substituting other Ras proteins or nucleotides, such as K-Ras G12D and K-Ras G13D. […]
pIC50: −log10 of the molar value.

molecule	pIC50
CCn1c(-c2cccnc2[C@H](C)OC)c2c3cc(ccc31)-c1csc(n1)C[C@H](NC(=O)[C@H](C(C)C)N(C)C(=O)N(C)[C@H]1CCN(C(=O)[C@H]3CN3)C1)C(=O)N1CCC[C@H](N1)C(=O)OCC(C)(C)C2 (atropisomer, axis not shown)	5.00 to 6.00
CCn1c(-c2cccnc2[C@H](C)OC)c2c3cc(ccc31)-c1cc(O)cc(c1)C[C@H](NC(=O)[C@H](C(C)C)N(C)C(=O)N1CCN(C(=O)[C@H]3CN3)CC1)C(=O)N1CCC[C@H](N1)C(=O)OCC(C)(C)C2	6.00 to 7.00
CCn1c(-c2cccnc2[C@H](C)OC)c2c3cc(ccc31)-c1cc(O)cc(c1)C[C@H](NC(=O)[C@H](C(C)C)N1CCC3(CN(C(=O)[C@H]4CN4)C3)C1=O)C(=O)N1CCC[C@H](N1)C(=O)OCC(C)(C)C2	6.00 to 7.00
CCn1c(-c2cccnc2[C@H](C)OC)c2c3cc(ccc31)-c1cc(O)cc(c1)C[C@H](NC(=O)[C@H](C(C)C)N(C)C(=O)N1CC[C@H](N(C)C(=O)[C@@H]3CN3)C1)C(=O)N1CCC[C@H](N1)C(=O)OCC(C)(C)C2 (atropisomer, axis not shown)	6.00 to 7.00
